Data origin, for the record: PubChem BioAssay AID651636

- assay_target: G-protein coupled receptor 183 (Homo sapiens) (UniProt P32249)
- Sequence (P32249 whole entry, looked up, the tested form may be a part): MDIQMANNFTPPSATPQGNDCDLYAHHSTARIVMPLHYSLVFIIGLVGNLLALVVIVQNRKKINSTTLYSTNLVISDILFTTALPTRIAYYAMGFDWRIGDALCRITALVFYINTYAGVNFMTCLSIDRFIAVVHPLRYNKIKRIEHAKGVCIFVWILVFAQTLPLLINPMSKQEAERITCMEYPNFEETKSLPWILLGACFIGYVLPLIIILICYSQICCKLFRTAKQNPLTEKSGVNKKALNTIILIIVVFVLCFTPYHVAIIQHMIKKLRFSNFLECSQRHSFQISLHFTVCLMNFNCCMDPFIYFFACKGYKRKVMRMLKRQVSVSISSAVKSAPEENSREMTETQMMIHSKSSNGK
- assay_notes: EBI2 receptor antagonists, beta-arrestin recruitment, primary screen, cell-based, luminescence, 7a,25-OHC stimulation, uHTS (AID 651636);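 also: enzyme fragment complementation signal reports receptor beta-arrestin coupling in cells; 0% = agonist plus DMSO wells and 100% = wells without agonist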
- study_conditions: 7a,25-OHC stimulated, at 5 µM, hits give high values
The campaign covered roughly 360,000 compounds. About 3,000 (0.83%) were called active. What follows is part of a selection rich in actives, with near analogues and random picks from the rest.
metric_name: inhibition (%)
Your answer should be a plain number; it is taken to be in %.

INPUT: Would you kindly share the measured inhibition for CCOc1ccc(-c2noc(CCC(=O)NC3CCCC3)n2)cc1OC ?
OUTPUT: 8.53

INPUT: Try this compound next: CC1CCCN(CC(=O)Nc2cc(Cl)ccc2Oc2ccccc2)C1 (stereo not given)
OUTPUT: 6.08

INPUT: Also, CCCCCCCCN1C(=O)[C@H](CC(=O)NCC23CC4CC(CC(C4)C2)C3)C[C@@]2(C(=O)OC)CCCCC=C12 please.
OUTPUT: 8.12

INPUT: What about this compound? Cc1c(C(=O)N2CCN(c3ccc(F)cc3)CC2)oc2c1C(=O)CCC2
OUTPUT: -8.48

INPUT: Another compound: CCOc1cc(-c2noc(CCC(=O)N3CCOCC3)n2)ccc1OC
OUTPUT: -2.72

---

- assay_target: G-protein coupled receptor 183 (Homo sapiens) (UniProt P32249)
- assay_notes: EBI2 receptor antagonists, beta-arrestin recruitment, primary screen, cell-based, luminescence, 7a,25-OHC stimulation, uHTS (AID 651636);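 also: enzyme fragment complementation signal reports receptor beta-arrestin coupling in cells; 0% = agonist plus DMSO wells and 100% = wells without agonist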
- study_conditions: 7a,25-OHC stimulated, at 5 µM, hits give high values
Screen size: about 360,000 compounds; about 3,000 (0.83%) were called active. The sample holds actives, similar compounds and a random draw of the others, so the mix is not that of the screen.
metric_name: inhibition (%)
Numbers only here, please. The scale is %.

INPUT: Please provide the recorded inhibition for O=C1NC(c2ccccc2)Cc2ccncc21 (configuration not stated) , tested on G-protein coupled receptor 183 (Homo sapiens) (UniProt P32249).
OUTPUT: -15.8

INPUT: Proceed to FC(F)(F)c1cccc(-c2nc3ccccc3n2C(c2ccccc2)c2nc3ccccc3[nH]2)c1 (configuration not stated)
OUTPUT: 8.62

INPUT: What would you report for CN1CCc2ccccc2C1Cc1ccccc1NC(=O)c1sc2ccccc2c1Cl (configuration not stated) ?
OUTPUT: 65.6

INPUT: Can you check CCc1ccccc1NC(=O)NCCN1CCCCC1 next?
OUTPUT: 4.39

INPUT: Now try COc1ccccc1-n1c(=S)[nH]c2c(sc(=S)n2-c2ccc(C)cc2C)c1=O .
OUTPUT: 0.762

INPUT: Note, next up: CC(C)(C)c1cc(CN2CCN(CCC#N)CC2)cc(C(C)(C)C)c1O
OUTPUT: 1.34

INPUT: Further, for CCOC(=O)/C=C/CN(C(=O)OC(C)(C)C)S(=O)(=O)N1CC=CC1 ?
OUTPUT: 0.259

INPUT: Thanks! And CCOc1ccc(CN(Cc2ccco2)S(=O)(=O)c2ccc(-n3cnnn3)c(OC)c2)cc1 ?
OUTPUT: 50.9

INPUT: What about this compound? CSCCC(C(=O)NC1=NCCS1)N1C(=O)c2ccccc2C1=O (configuration not stated)
OUTPUT: 1.85

INPUT: Record: O=C(NNc1c2ccccc2nc2ccccc12)c1cc2ccccc2cc1O
OUTPUT: 44.6

INPUT: Same lookup for Brc1ccc(/C=N/N2CCN(C3c4ccccc4-c4ccccc43)CC2)s1 , please.
OUTPUT: 6.47

INPUT: Subsequent entry: O=C(Nc1ccccc1Cl)/C(Cl)=C(\Cl)S(=O)c1ccccc1 (configuration not stated)
OUTPUT: 59.7

INPUT: Can you check O=C(NC(CC(=O)N1CCN(c2ccccc2)CC1)c1ccccc1)c1ccccc1Cl (configuration not stated) next?
OUTPUT: 11.4

INPUT: // query: Cc1ccccc1C(CC(=O)c1cccs1)C(C#N)C#N (configuration not stated)
OUTPUT: -15.3

INPUT: Proceed to CCN1CCN(c2ccc([N+](=O)[O-])cc2C(=O)c2ccc(Cl)cc2)CC1
OUTPUT: 8.05

INPUT: What about Cc1nnc(SC(C)C(=O)c2c[nH]c3ccccc23)n1C1CC1 (configuration not stated) ?
OUTPUT: -6.27

INPUT: What about COc1ccc(S(=O)(=O)N2CCCCC2)cc1NC(=O)c1cc([N+](=O)[O-])ccc1N1CCOCC1 ?
OUTPUT: 15.7

INPUT: Same again, this time with O=C(NCCC1CCCCN1S(=O)(=O)c1ccc(Cl)cc1)C(=O)NCc1ccco1 (configuration not stated)
OUTPUT: 2.6

INPUT: Please give the result for O=C(COc1nsnc1N1CCOCC1)Nc1ccccc1Cl too.
OUTPUT: -1.57

INPUT: Now try COc1ccc(S(=O)(=O)NCC(=O)NCc2cc(=O)n(C)c(=O)n2C)cc1F .
OUTPUT: 2.08

INPUT: Thanks! And Cc1ccc(-n2nc(-c3ccco3)cc2C(=O)NCc2cccnc2)cc1 ?
OUTPUT: 7.84

INPUT: Next record, please: CCc1ccccc1NC(=O)c1ccc2c(c1)CCN2S(C)(=O)=O
OUTPUT: -1.7
